src = patent US8304447B2

- System: GM3
- experiment_description: GM3 Elisa assay
- Assay type: cell-based
- cond: Table 3 (IC 50 Values); B16-FO cells; read-out: IC50_uM_Mean
value_type: IC50

Consider the following illustrative entries.
COc1ccc(OCCC(=O)N[C@H](CN2C3CCC2CC3)[C@H](O)c2ccc3c(c2)OCCO3)cc1 [Compound 523]: 100 to 1000 nM
CCCCCCCC(=O)N[C@H](CN1C(C)CCCC1C)[C@H](O)c1ccc2c(c1)OCCO2 (stereo partly drawn) [Compound 595]: 3000 to 10000 nM
COc1ccc(C(=O)CCCCC(=O)N[C@H](CN2C3CCC2CC3)[C@H](O)c2ccc(OC(C)C)cc2)cc1 [Compound 376]: ≤ 100 nM
COc1ccc(C(=O)CCCCCC(=O)N[C@H](CN2[C@H](C)CC[C@H]2C)[C@H](O)c2ccc3c(c2)OCCO3)cc1 [Compound 548]: 1000 to 3000 nM
COc1ccc(C(=O)CCCCCC(=O)N[C@H](CNC2CCCC2)[C@H](O)c2ccc3c(c2)OCCO3)cc1 [Compound 463]: 100 to 1000 nM
CCCCCCCC(=O)N[C@H](CN1CCCC1)[C@@H](O)c1ccc2c(c1)OCCO2 [Compound 673]: 3000 to 10000 nM
COc1ccc(C(=O)CCCCC(=O)N[C@H](CN2CCCC2)[C@H](O)c2ccc(OC)c(C)c2)cc1 [Compound 387]: 100 to 1000 nM
O=C(CCCCCC(=O)c1ccc(F)cc1)N[C@H](CN1CC[C@@H](F)C1)[C@H](O)c1ccc2c(c1)OCCO2 [Compound 565]: ≤ 100 nM

Required: IC50, one value per compound below.
1. CCCCCCCC(=O)N[C@H](CN1C[C@@H]2CC[C@H]1C2)[C@H](O)c1ccc2c(c1)OCCO2 [Compound 545]
2. CCCCCCCC(=O)N[C@H](CN1CCC[C@H]1COC)[C@@H](O)c1ccc2c(c1)OCCO2 [Compound 534]
3. CCCCCCCC(=O)N[C@H](CN1CCCCC1C)[C@H](O)c1ccc2c(c1)OCCO2 (stereo partly drawn) [Compound 605]

Reply:
1: 100 to 1000 nM; 2: 3000 to 10000 nM; 3: 3000 to 10000 nM

Required: IC50, one value per compound below.
1. COc1ccc(OCCC(=O)N[C@H](CN2CCCC2)[C@H](O)/C=C/c2ccccc2)cc1 [Compound 396]
2. COc1ccc(C(=O)CCCCCC(=O)N[C@H](CN2CCCC2)[C@H](O)c2cc(OC)c(OC)c(OC)c2)cc1 [Compound 668]
3. COc1ccc(OCCC(=O)N[C@H](CN2CCCC(C)C2)[C@H](O)c2ccc3c(c2)OCCO3)cc1 (stereo partly drawn) [Compound 608]
4. COc1ccc(C(=O)CCCCC(=O)N[C@H](CN2CCCC2)[C@H](O)c2ccc3c(c2)OC(F)(F)O3)cc1 [Compound 408]

Reply:
3000 to 10000 nM
1000 to 3000 nM
3000 to 10000 nM
1000 to 3000 nM

---

- System: GM3
- experiment_description: GM3 Elisa assay
- Assay type: cell-based
- cond: Table 3 (IC 50 Values); B16-FO cells; read-out: IC50_uM_Mean
For each of the molecules below, state its IC50.

CCCCCCOc1ccc([C@@H](O)[C@@H](CN2CC[C@@H](F)C2)NC(=O)CCCCC(=O)c2ccc(OC)cc2)cc1: ≤ 0.1 µM
COc1ccc(OCCC(=O)N[C@H](CN2CCCC2(C)C)[C@H](O)c2ccc3c(c2)OCCO3)cc1: 3 to 10 µM
COc1ccc(C(=O)CCCC(=O)N[C@H](CN2CCCC2)[C@H](O)c2ccc(C)c(F)c2)cc1: 0.1 to 1 µM
O=C(CCCCS(=O)(=O)C1CCCCC1)N[C@H](CN1CCCC1)[C@H](O)c1ccc2c(c1)OCCO2: 3 to 10 µM
COc1ccc(C(=O)CCCCCC(=O)N[C@H](CN2CCCC2)[C@H](O)c2ccc3c(c2)OC(F)(F)O3)cc1: 0.1 to 1 µM

Required: IC50, one value per molecule below.
1. CCCCCCCC(=O)N[C@H](CCN1CCOCC1)[C@H](O)c1ccc2c(c1)OCCO2
2. CCCCCCCC(=O)N[C@H](CN1CCCC1)[C@H](O)c1ccc(OCc2ccccc2)cc1

Reply:
3 to 10 µM
≤ 0.1 µM
